B1: LINE1-full (parent)
chain: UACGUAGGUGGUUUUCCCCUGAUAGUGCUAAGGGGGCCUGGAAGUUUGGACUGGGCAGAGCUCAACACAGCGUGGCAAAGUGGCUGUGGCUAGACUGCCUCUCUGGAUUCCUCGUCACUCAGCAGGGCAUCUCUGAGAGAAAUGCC

- Variants of: B1
- experiment.description: self-cleavage, relative activity (ratio to wild type); higher = more cleavage; in vitro, sequencing; the parent is a self-cleaving ribozyme
endpoint: self-cleavage
Lab note: record just the number, no unit beside it.

Endpoint output: self-cleavage of A67G U130A . Value? 0.54

Can you share its self-cleavage? I mean this variant: U26C G75U 0.57

// returns reported self-cleavage for input U62A 0.04

Which self-cleavage value belongs to U12C A92U ? 0.56

Data request, read-out self-cleavage, for C19U A79G 0.97

Suppose we examine the variant A42C A107U ; what self-cleavage value has been reported? 1.04

Can you share its self-cleavage? I mean this variant: U45A G72A 0.95

May I ask what self-cleavage has been recorded for U12G G97U ? 0.07

Look up self-cleavage for this variant: U52C A92G 0.1

Requested read-out: self-cleavage. Entry: A42G A78G 1.49

Record request: self-cleavage value, item U15C U87A 0.1

Give the measured self-cleavage of U12A C123U . 1.38

What self-cleavage value was documented for this variant, C3U U96C ? 0

# lookup: self-cleavage of U29C A94G 0.54

Fill blank: measured self-cleavage of the variant U62A U143A is ____. 0.04

Can you share its self-cleavage? I mean this variant: U91G U108C 0

What does the data say about its self-cleavage? Entry: C37G A117G 1.66

Item A59G C103U has what recorded self-cleavage? 0.06

Item under review: U12G C61A . Reported self-cleavage? 0.14

Any idea what self-cleavage was measured for C28U A43C ? 1.2

self-cleavage for U12C A69C ? 0.09

Given U20A C111A , state its recorded self-cleavage. 1.19

Quick one: self-cleavage of U23A U115C ? 1.18

Can you share its self-cleavage? I mean this variant: G72A C120U 1.31

Consider the variant U29A A77U and give its measured self-cleavage. 1.79

Given the variant A77G A92U , what is its reported self-cleavage? 1.11

May I ask what self-cleavage has been recorded for U39A U91A ? 0.56

Field request: self-cleavage | item: U73C A129G 1.98

Quick one: self-cleavage of U81C A140G ? 1.07

Which self-cleavage value belongs to U23A U73C ? 1.24

For the variant shown here, C111U A121U , give the reported self-cleavage. 1.28

# get_value(readout='self-cleavage', item= U12C A43C ) 1.45

Give the measured self-cleavage of C19U A121C . 1.02

What value of measured self-cleavage is listed for G114A G127C ? 1.34

Recorded self-cleavage for A22U U109A , please? 1.34

# query: self-cleavage of entry U39C G137A 1.09

Query: self-cleavage; subject: A50U U62C 0.04

I am curious: what self-cleavage value has been reported for A79G C128U ? 0.92

Param item = G35U U102C ; retrieve measured self-cleavage. 1.73

Dear colleague, I am looking for the recorded self-cleavage of the following variant: U12C G25A 1.18

# lookup: self-cleavage of G11U A136U 1.26

Query (variant): U39C U52C ; field requested: self-cleavage 0.37

Form field: reported self-cleavage of U13C C116A 1.15

If you can, please state the reported self-cleavage value of A31U A67G . 0.41

Please give the measured self-cleavage for this variant: U5A A141G 1.23

Using the record for U29C A42G , report its self-cleavage. 1.66
